# Test Context: 2 Days at +50°C, 1.0 mg/mL in water;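 also: purity and concentration determined by HPLC on aqueous solutions kept in a stability chamber, with samples analyzed at day 0 and after incubation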
Endpoint: Forced degradation Δ Purity (%)

INSERT INTO results (smiles_repr, endpoint, quantitative_result) VALUES
  ('C=C1NC(=O)[C@H](Cc2c[nH]c3ccccc23)NC(=O)[C@H](NC(=O)[C@H](CCCCN)NC(=O)[C@@H](N)CC(C)C)CSC[C@@H](C(=O)N[C@H]2C(=O)N3CCC[C@H]3C(=O)NCC(=O)N[C@H](C(=O)N[C@@H](C)C(=O)N[C@@H](CC(N)=O)C(=O)N/C(=C\C)C(=O)NCC(=O)N[C@@H]3CSC[C@@H]4NC(=O)[C@H](Cc5ccc(O)cc5)NC(=O)[C@@H](CS/C=C\NC4=O)NC(=O)[C@H](CC(N)=O)NC(=O)[C@H](Cc4ccccc4)NC3=O)CS[C@H]2C)NC(=O)[C@H](CC(C)C)NC1=O', 'Forced degradation Δ Purity', -3.01),
  ('C=C1NC(=O)[C@H](Cc2c[nH]c3ccccc23)NC(=O)[C@H](NC(=O)[C@H](CCCCN)NC(=O)[C@@H](N)CC(C)C)CSC[C@@H](C(=O)N[C@H]2C(=O)N3CCC[C@H]3C(=O)NCC(=O)N[C@H](C(=O)N[C@@H](C)C(=O)N[C@@H](CC(=O)O)C(=O)N/C(=C\C)C(=O)NCC(=O)N[C@@H]3CSC[C@@H]4NC(=O)[C@H](Cc5ccc(O)cc5)NC(=O)[C@@H](CS/C=C\NC4=O)NC(=O)[C@H](CC(N)=O)NC(=O)[C@H](Cc4ccccc4)NC3=O)CS[C@H]2C)NC(=O)[C@H](CC(C)C)NC1=O', 'Forced degradation Δ Purity', -1.32),
  ('C=C1NC(=O)[C@H](Cc2c[nH]c3ccccc23)NC(=O)[C@H](NC(=O)[C@H](CCCCN)NC(=O)[C@@H](N)C(C)C)CSC[C@@H](C(=O)N[C@H]2C(=O)N3CCC[C@H]3C(=O)NCC(=O)N[C@H](C(=O)N[C@@H](C)C(=O)N[C@@H](CC(N)=O)C(=O)N/C(=C\C)C(=O)NCC(=O)N[C@@H]3CSC[C@@H]4NC(=O)[C@H](Cc5ccc(O)cc5)NC(=O)[C@@H](CS/C=C\NC4=O)NC(=O)[C@H](CC(N)=O)NC(=O)[C@H](Cc4ccccc4)NC3=O)CS[C@H]2C)NC(=O)[C@H](CC(C)C)NC1=O', 'Forced degradation Δ Purity', -3.67),
  ('C=C1NC(=O)[C@H](Cc2c[nH]c3ccccc23)NC(=O)[C@H](NC(=O)[C@H](CCCCN)NC(=O)[C@@H](N)[C@@H](C)CC)CSC[C@@H](C(=O)N[C@H]2C(=O)N3CCC[C@H]3C(=O)NCC(=O)N[C@H](C(=O)N[C@@H](C)C(=O)N[C@@H](C)C(=O)N/C(=C\C)C(=O)NCC(=O)N[C@@H]3CSC[C@@H]4NC(=O)[C@H](Cc5ccc(O)cc5)NC(=O)[C@@H](CS/C=C\NC4=O)NC(=O)[C@H](CC(N)=O)NC(=O)[C@H](Cc4ccccc4)NC3=O)CS[C@H]2C)NC(=O)[C@H](CC(C)C)NC1=O', 'Forced degradation Δ Purity', -0.61),
  ('C=C1NC(=O)[C@H](Cc2c[nH]c3ccccc23)NC(=O)[C@H](NC(=O)[C@H](CCCCN)NC(=O)[C@@H](N)[C@@H](C)CC)CSC[C@@H](C(=O)N[C@H]2C(=O)N3CCC[C@H]3C(=O)NCC(=O)N[C@H](C(=O)N[C@@H](C)C(=O)N[C@@H](CC(N)=O)C(=O)N/C(=C\C)C(=O)NCC(=O)N[C@@H]3CSC[C@@H]4NC(=O)[C@H](Cc5ccc(O)cc5)NC(=O)[C@@H](CS/C=C\NC4=O)NC(=O)[C@H](CC(N)=O)NC(=O)[C@H](Cc4ccccc4)NC3=O)CS[C@H]2C)NC(=O)[C@H](CC(C)C)NC1=O', 'Forced degradation Δ Purity', -8.05);
